# IC50 per entry
system: brain glioma SNB-19; test: Cytotoxic activity in vitro, WST1 test; type: cell-based; conditions: Homo sapiens, SNB-19 cells, read-out: Cytotoxic activity in vitro as IC50
Entry rule: numbers only, all in µg/mL.

Worked cases, answers included:
{"Compound": "CCOP(=O)(/C=C(\\C)[C@@H]1CC[C@]2(COC(=O)C#CC3CC3)CC[C@]3(C)[C@H](CC[C@@H]4[C@@]5(C)CC[C@H](O)C(C)(C)[C@@H]5CC[C@]43C)[C@@H]12)OCC", "Result type": "IC50", "Units label": "µg/mL", "Meas value": 2.2}
{"Compound": "CCOP(=O)(/C=C(\\C)[C@@H]1CC[C@]2(CO)CC[C@]3(C)[C@H](CC[C@@H]4[C@@]5(C)CC[C@H](O)C(C)(C)[C@@H]5CC[C@]43C)[C@@H]12)OCC [trans R = R1 =Et, R2= OH, R3 = CH2OH, E-29-Diethoxyphosphorylbetulin]", "Result type": "IC50", "Units label": "µg/mL", "Meas value": 5.9}

Query: Tell me the measured IC50 of CCOP(=O)(/C=C(\C)[C@@H]1CC[C@]2(COC(=O)C#CC3CC3)CC[C@]3(C)[C@H](CC[C@@H]4[C@@]5(C)CC[C@H](OC(=O)C#CC6CC6)C(C)(C)[C@@H]5CC[C@]43C)[C@@H]12)OCC , please.
Reply: 40.4

Query: Tell me the measured IC50 of CCOP(=O)(/C=C(/C)[C@@H]1CC[C@]2(CO)CC[C@]3(C)[C@H](CC[C@@H]4[C@@]5(C)CC[C@H](O)C(C)(C)[C@@H]5CC[C@]43C)[C@@H]12)OCC [cis R = R1 = Et, R2 =OH, R3 = CH2OH, Z - 29 - Diethoxyphosphorylbetulin] , please.
Reply: 4.8
